Measured relative viability, listed per entry.
# System: HCC-15
# assayMethodText: relative viability (nuclei count vs DMSO), 5 days (fraction); higher = more cells survive
# experimentalContext: first compound 6.325 µM
In your answer, state the number alone without any accompanying words.

[
  {
    "molecule": "COCC1(CO)C(=O)C2CCN1CC2 (stereo unspecified) [PRIMA-1MET] + Nc1ncn([C@H]2C[C@H](O)[C@@H](CO)O2)c(=O)n1 [Decitabine] (partner 2 µM)",
    "system": "HCC-15",
    "relative viability": 0.585
  },
  {
    "molecule": "COCC1(CO)C(=O)C2CCN1CC2 (stereo unspecified) [PRIMA-1MET] + CC1(C)CCC(c2ccc(Cl)cc2)=C(CN2CCN(c3ccc(C(=O)NS(=O)(=O)c4ccc(N[C@H](CCN5CCOCC5)CSc5ccccc5)c(S(=O)(=O)C(F)(F)F)c4)cc3)CC2)C1 [Navitoclax] (partner 0.5 µM)",
    "system": "HCC-15",
    "relative viability": 0.713
  },
  {
    "molecule": "COCC1(CO)C(=O)C2CCN1CC2 (stereo unspecified) [PRIMA-1MET] + COc1cc2c(Oc3ccc(NC(=O)C4(C(=O)Nc5ccc(F)cc5)CC4)cc3F)ccnc2cc1OCCCN1CCOCC1 [Foretinib] (partner 0.25 µM)",
    "system": "HCC-15",
    "relative viability": 1.02
  }
]

Kindly note the recorded relative viability for COCC1(CO)C(=O)C2CCN1CC2 (stereo unspecified) [PRIMA-1MET] + CCNC(=O)c1noc(-c2cc(C(C)C)c(O)cc2O)c1-c1ccc(CN2CCOCC2)cc1 [Luminespib] (partner 0.01 µM) , which is 0.408

Kindly note the recorded relative viability for COCC1(CO)C(=O)C2CCN1CC2 (stereo unspecified) [PRIMA-1MET] + NC(=O)Nc1cc(-c2cccc(F)c2)sc1C(=O)N[C@H]1CCCNC1 [AZD7762] (partner 0.2 µM) , which is 1.26

Kindly note the recorded relative viability for COCC1(CO)C(=O)C2CCN1CC2 (stereo unspecified) [PRIMA-1MET] + Nc1nc2[nH]cc(CCc3ccc(C(=O)N[C@@H](CCC(=O)O)C(=O)O)cc3)c2c(=O)[nH]1 [Pemetrexed] (partner 0.2 µM) , which is 0.21

* * *

Measured relative viability, listed per entry.
# Test system: EBC-1
# assayMethodText: relative viability (nuclei count vs DMSO), 5 days (fraction); higher = more cells survive
# experimentalContext: first compound 0.1 µM

[
  {
    "molecule": "O=c1cc(N2CCOCC2)oc2c(-c3cccc4c3sc3ccccc34)cccc12 + CS(=O)(=O)CCNCc1ccc(-c2ccc3ncnc(Nc4ccc(OCc5cccc(F)c5)c(Cl)c4)c3c2)o1 [Lapatinib] (partner 2 µM)",
    "system": "EBC-1",
    "reported": 0.246
  },
  {
    "molecule": "O=c1cc(N2CCOCC2)oc2c(-c3cccc4c3sc3ccccc34)cccc12 + O=C(c1cc(Cc2n[nH]c(=O)c3ccccc23)ccc1F)N1CCN(C(=O)C2CC2)CC1 [Olaparib] (partner 8 µM)",
    "system": "EBC-1",
    "reported": 0.757
  }
]

Consider now this further molecule.
Reported EBC-1 relative viability for item O=c1cc(N2CCOCC2)oc2c(-c3cccc4c3sc3ccccc34)cccc12 + COc1cc2c(Oc3ccc(NC(=O)C4(C(=O)Nc5ccc(F)cc5)CC4)cc3F)ccnc2cc1OCCCN1CCOCC1 [Foretinib] (partner 0.25 µM) was 0.0965

* * *

# Tested on: NCI-H520
# assayMethodText: relative viability (nuclei count vs DMSO), 5 days (fraction); higher = more cells survive
# experimentalContext: first compound 0.01 µM
Mark Yes only for relative viability values smaller than 0.7; exact matches and larger values are No.

Check if relative viability falls below 0.7 for O=c1cc(N2CCOCC2)oc2c(-c3cccc4c3sc3ccccc34)cccc12 + N=C(N)NC(=N)NCCc1ccccc1 [Phenformin] (partner 250 µM) .
Yes

Check if relative viability falls below 0.7 for CCN(CC)CCCCNc1ncc2cc(-c3cc(OC)cc(OC)c3)c(NC(=O)NC(C)(C)C)nc2n1 + Cc1cc(Nc2cc(N3CCN(C)CC3)nc(Sc3ccc(NC(=O)C4CC4)cc3)n2)n[nH]1 [Tozasertib] (partner 0.1 µM) .
Yes

Check if relative viability falls below 0.7 for O=c1cc(N2CCOCC2)oc2c(-c3cccc4c3sc3ccccc34)cccc12 + CC(C)C[C@H](NC(=O)[C@H](Cc1ccccc1)NC(=O)c1cnccn1)B(O)O [Bortezomib] (partner 0.002 µM) .
Yes

Check if relative viability falls below 0.7 for O=c1cc(N2CCOCC2)oc2c(-c3cccc4c3sc3ccccc34)cccc12 + CC1(C)CCC(c2ccc(Cl)cc2)=C(CN2CCN(c3ccc(C(=O)NS(=O)(=O)c4ccc(N[C@H](CCN5CCOCC5)CSc5ccccc5)c(S(=O)(=O)C(F)(F)F)c4)cc3)CC2)C1 [Navitoclax] (partner 0.5 µM) .
No

Check if relative viability falls below 0.7 for O=c1cc(N2CCOCC2)oc2c(-c3cccc4c3sc3ccccc34)cccc12 + CS(=O)(=O)CCNCc1ccc(-c2ccc3ncnc(Nc4ccc(OCc5cccc(F)c5)c(Cl)c4)c3c2)o1 [Lapatinib] (partner 2 µM) .
No

Check if relative viability falls below 0.7 for O=c1cc(N2CCOCC2)oc2c(-c3cccc4c3sc3ccccc34)cccc12 + COc1cccc2cc(-c3nc([C@H]4CC[C@H](C(=O)O)CC4)n4ncnc(N)c34)[nH]c12 [OSI-027] (partner 0.5 µM) .
Yes

* * *

# Tested on: LU99A
# assayMethodText: relative viability (nuclei count vs DMSO), 5 days (fraction); higher = more cells survive
# experimentalContext: first compound 2 µM
Measured relative viability, listed per entry.
In your answer, state the number alone without any accompanying words.

[
  {
    "compound": "COCC1(CO)C(=O)C2CCN1CC2 (centres undefined) [PRIMA-1MET] + COc1cccc2cc(-c3nc([C@H]4CC[C@H](C(=O)O)CC4)n4ncnc(N)c34)[nH]c12 [OSI-027] (partner 0.5 µM)",
    "relative viability": 0.292
  }
]

Kindly note the recorded relative viability for COCC1(CO)C(=O)C2CCN1CC2 (centres undefined) [PRIMA-1MET] + C[C@@H](Oc1cc(-c2cnn(C3CCNCC3)c2)cnc1N)c1c(Cl)ccc(F)c1Cl [Crizotinib] (partner 1 µM) , which is 0.576

Kindly note the recorded relative viability for COCC1(CO)C(=O)C2CCN1CC2 (centres undefined) [PRIMA-1MET] + O=C(c1cc(Cc2n[nH]c(=O)c3ccccc23)ccc1F)N1CCN(C(=O)C2CC2)CC1 [Olaparib] (partner 8 µM) , which is 0.263

Kindly note the recorded relative viability for COCC1(CO)C(=O)C2CCN1CC2 (centres undefined) [PRIMA-1MET] + C[C@]1(O)C[C@@H](c2nc(-c3ccc4ccc(-c5ccccc5)nc4c3)c3c(N)nccn32)C1 [Linsitinib] (partner 1 µM) , which is 0.567

* * *

Measured relative viability, listed per entry.
# Test system: RERF-LC-KJ
# assayMethodText: relative viability (nuclei count vs DMSO), 5 days (fraction); higher = more cells survive
# experimentalContext: first compound 1 µM
In your answer, state the number alone without any accompanying words.

[
  {
    "compound": "O=c1cc(N2CCOCC2)oc2c(-c3cccc4c3sc3ccccc34)cccc12 + CC1(C)CCC(c2ccc(Cl)cc2)=C(CN2CCN(c3ccc(C(=O)NS(=O)(=O)c4ccc(N[C@H](CCN5CCOCC5)CSc5ccccc5)c(S(=O)(=O)C(F)(F)F)c4)cc3)CC2)C1 [Navitoclax] (partner 0.5 µM)",
    "relative viability": 0.974
  },
  {
    "compound": "CCN(CC)CCCCNc1ncc2cc(-c3cc(OC)cc(OC)c3)c(NC(=O)NC(C)(C)C)nc2n1 + CC(=O)Nc1cccc(-n2c(=O)n(C3CC3)c(=O)c3c(Nc4ccc(I)cc4F)n(C)c(=O)c(C)c32)c1 [Trametinib] (partner 0.02 µM)",
    "relative viability": 0.818
  },
  {
    "compound": "CCN(CC)CCCCNc1ncc2cc(-c3cc(OC)cc(OC)c3)c(NC(=O)NC(C)(C)C)nc2n1 + Nc1ncn([C@H]2C[C@H](O)[C@@H](CO)O2)c(=O)n1 [Decitabine] (partner 2 µM)",
    "relative viability": 0.603
  }
]

Kindly note the recorded relative viability for CCN(CC)CCCCNc1ncc2cc(-c3cc(OC)cc(OC)c3)c(NC(=O)NC(C)(C)C)nc2n1 + O=C(c1cc(Cc2n[nH]c(=O)c3ccccc23)ccc1F)N1CCN(C(=O)C2CC2)CC1 [Olaparib] (partner 8 µM) , which is 0.963

* * *

# Tested on: NCI-H1666
# assayMethodText: relative viability (nuclei count vs DMSO), 5 days (fraction); higher = more cells survive
# experimentalContext: first compound 0.08 µM
Measured relative viability, listed per entry.
In your answer, state the number alone without any accompanying words.

[
  {
    "compound": "COc1nc(C)cnc1NS(=O)(=O)c1cccnc1-c1ccc(-c2nnco2)cc1 [Zibotentan] + CS(=O)(=O)N1CCN(Cc2cc3nc(-c4cccc5[nH]ncc45)nc(N4CCOCC4)c3s2)CC1 [Pictilisib] (partner 1 µM)",
    "system": "NCI-H1666",
    "relative viability": 0.553
  },
  {
    "compound": "O=c1cc(-c2cccc3c2Sc2ccccc2S3)oc(N2CCOCC2)c1 + COc1cccc2cc(-c3nc([C@H]4CC[C@H](C(=O)O)CC4)n4ncnc(N)c34)[nH]c12 [OSI-027] (partner 0.5 µM)",
    "system": "NCI-H1666",
    "relative viability": 0.838
  }
]

Kindly note the recorded relative viability for O=c1cc(-c2cccc3c2Sc2ccccc2S3)oc(N2CCOCC2)c1 + Cc1cc(Nc2cc(N3CCN(C)CC3)nc(Sc3ccc(NC(=O)C4CC4)cc3)n2)n[nH]1 [Tozasertib] (partner 0.1 µM) , which is 0.612

Kindly note the recorded relative viability for COc1nc(C)cnc1NS(=O)(=O)c1cccnc1-c1ccc(-c2nnco2)cc1 [Zibotentan] + C[C@@H](Oc1cc(-c2cnn(C3CCNCC3)c2)cnc1N)c1c(Cl)ccc(F)c1Cl [Crizotinib] (partner 1 µM) , which is 1.01

Kindly note the recorded relative viability for O=c1cc(-c2cccc3c2Sc2ccccc2S3)oc(N2CCOCC2)c1 + CC1(C)CCC(c2ccc(Cl)cc2)=C(CN2CCN(c3ccc(C(=O)NS(=O)(=O)c4ccc(N[C@H](CCN5CCOCC5)CSc5ccccc5)c(S(=O)(=O)C(F)(F)F)c4)cc3)CC2)C1 [Navitoclax] (partner 0.5 µM) , which is 0.988

Kindly note the recorded relative viability for COc1nc(C)cnc1NS(=O)(=O)c1cccnc1-c1ccc(-c2nnco2)cc1 [Zibotentan] + Cc1nc(NC(=O)N2CCC[C@H]2C(N)=O)sc1-c1ccnc(C(C)(C)C(F)(F)F)c1 [Alpelisib] (partner 2 µM) , which is 1.12

Reference for the values: the supplement of paper PMC10307832
